Molecular target: MDH2 (Homo sapiens, UniProt P40926)
Sequence (P40926 25-338): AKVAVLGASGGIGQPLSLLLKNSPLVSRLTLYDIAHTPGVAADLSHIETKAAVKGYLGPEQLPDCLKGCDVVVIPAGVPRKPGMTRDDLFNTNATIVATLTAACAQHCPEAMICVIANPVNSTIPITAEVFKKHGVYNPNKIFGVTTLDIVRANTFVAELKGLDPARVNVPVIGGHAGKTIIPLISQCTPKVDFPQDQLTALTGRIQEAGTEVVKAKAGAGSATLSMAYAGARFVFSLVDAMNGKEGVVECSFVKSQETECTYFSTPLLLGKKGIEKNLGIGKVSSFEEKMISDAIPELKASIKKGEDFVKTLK
Experiment: MDH2 activity assay (oxaloacetate-dependent NADH oxidation)
Type: biochemical
Settings: 20 μM compound; means of three experiments; '-' means no effect
OUTCOME_MEASURE: inhibition at 20 µM (%)

# COMPOUND, NUMERIC_RESULT
records = [
    ("O=C(CSc1ccc2c(c1)OCCCO2)Nc1cc(C(F)(F)F)ccc1N1CCOCC1 [Compound 5]", 7.7),
    ("COc1ccc(NC(C)=O)cc1NC(=O)/C=C/c1cc(Cl)c(OC(C)C)c(OC)c1 [Compound 15]", 100),
    ("CCN(CC)c1ccc(-c2nnc(SCC(=O)Nc3cccc(C(=O)OC)c3)n2C)cc1 [Compound 11]", 57.6),
    ("CCOc1ccc(OCC)c(NC(=O)c2ccc(OC(F)F)c(OC)c2)c1 [Compound 2]", 5),
]

P. Cc1cc(C(=O)NNC(=O)c2ccc(=O)n(CCOc3ccccc3)n2)c(C)n1-c1ccc(F)cc1 [Compound 1]
Q. NC(=O)c1ccc(SCC(=O)Nc2cc(C(F)(F)F)ccc2N2CCOCC2)c([N+](=O)[O-])c1 [Compound 16]
Q: Which record would sort first by descending inhibition at 20 µM, P or Q ? I would appreciate it if you answered with the label of your choice.
Ans: Q
